System: Escherichia coli
protocol.description: Antibacterial activity against Escherichia coli ATCC 25922 (CO-ADD:GN_001); MIC in CAMBH media using NBS plates, by Resazurin F(560/590)
Format: functional
assay.setup: Concentration 20 uM, ASSAY_TEST Inhibition of Bacterial Growth, detection method Resazurin, Fluorescence (ex560/em590), MEDIA CAMHB, plate type 384well, CORNING #3640, time 18 hr
reported.endpoint: Inhibition (%)

[
  {
    "compound": "Cc1ccc(C)c(N2CCN(c3ccncc3N)CC2)c1",
    "study.target": "Escherichia coli",
    "measurement": 7.02
  },
  {
    "compound": "c1ccc2c(c1)-c1cccc3cncc-2c13",
    "study.target": "Escherichia coli",
    "measurement": 3.18
  },
  {
    "compound": "O=[N+]([O-])c1ccc(/C=C\\c2ccncc2)cc1",
    "study.target": "Escherichia coli",
    "measurement": -9.25
  },
  {
    "compound": "COc1cccc(/C=C/c2nccc3ccccc23)c1OC",
    "study.target": "Escherichia coli",
    "measurement": 11.96
  },
  {
    "compound": "Nc1ccc(/N=N/c2ccc(O)cc2)c(N)n1",
    "study.target": "Escherichia coli",
    "measurement": 0
  },
  {
    "compound": "Cc1ccccc1OCC(O)CN1CCN(c2ccc(Cl)cc2)CC1 (configuration not stated)",
    "study.target": "Escherichia coli",
    "measurement": 2.66
  },
  {
    "compound": "NC(=O)C1=C(N)c2ccccc2C1c1ccccc1 (configuration not stated)",
    "study.target": "Escherichia coli",
    "measurement": -18.86
  }
]

* * *

Test system: Escherichia coli
protocol.description: Antibacterial activity against Escherichia coli ATCC 25922 (CO-ADD:GN_001); MIC in CAMBH media using NBS plates, by Resazurin F(560/590)
Format: functional
assay.setup: Concentration 20 uM, ASSAY_TEST Inhibition of Bacterial Growth, detection method Resazurin, Fluorescence (ex560/em590), MEDIA CAMHB, plate type 384well, CORNING #3640, time 18 hr
Rule: Inhibition below 10% gives 1, anything at or above gives -1.

[
  {
    "compound": "CC(C)NCC1CCc2cc(CO)c([N+](=O)[O-])cc2N1 (stereo unspecified)",
    "discrete.label": 1
  },
  {
    "compound": "CN(C)CCCn1c2c3ccccc3ccc2c2oc(=O)c3ccccc3c21.Cl",
    "discrete.label": -1
  },
  {
    "compound": "CCNc1ccccc1C(=O)O",
    "discrete.label": -1
  },
  {
    "compound": "c1ccc(-n2ncc3cccnc32)cc1",
    "discrete.label": 1
  },
  {
    "compound": "N#C/N=C/N1CC=C(c2ccc(Cl)cc2)CC1",
    "discrete.label": 1
  },
  {
    "compound": "Oc1ccc(/N=N/c2nccs2)c(O)c1",
    "discrete.label": 1
  },
  {
    "compound": "O=[N+]([O-])c1ccc(Sc2ncccn2)c([N+](=O)[O-])c1",
    "discrete.label": 1
  },
  {
    "compound": "Cc1nc2c(O)cccc2cc1CO",
    "discrete.label": 1
  },
  {
    "compound": "O=c1oc2c(cc1O)oc(=O)c1cc(O)c(O)c(O)c12",
    "discrete.label": 1
  },
  {
    "compound": "COc1ccc(/C(C#N)=C/c2ccccn2)cc1",
    "discrete.label": -1
  },
  {
    "compound": "COc1ccc(Br)c2c1C(=O)CC2",
    "discrete.label": -1
  },
  {
    "compound": "COc1ccc2c(c1)CCCN2C(=N)Nc1ccc(Cl)cc1",
    "discrete.label": 1
  },
  {
    "compound": "CC(=O)Nc1c(C)cc(OCC(=O)O)cc1C",
    "discrete.label": 1
  },
  {
    "compound": "c1ccc2[nH]c(CCCCCc3nc4ccccc4[nH]3)nc2c1",
    "discrete.label": 1
  },
  {
    "compound": "CCN(CC)CCN1C(=O)c2cccc3cc(N)cc(c23)C1=O",
    "discrete.label": -1
  },
  {
    "compound": "CC(C)CNC(=O)/C=C\\C(=O)O",
    "discrete.label": 1
  },
  {
    "compound": "CCOC(=O)Cn1nc2oc(=O)c(CCN3CCN(c4ccccc4OC)CC3)c(C)c2c1C",
    "discrete.label": -1
  },
  {
    "compound": "Cc1cccc(C)c1NC(=O)Nc1ccc(S(N)(=O)=O)cc1",
    "discrete.label": 1
  },
  {
    "compound": "CCN(CC)CCNc1c(C)cc(CO)c(Cl)c1C.O=S(=O)(O)NC1CCCCC1",
    "discrete.label": -1
  },
  {
    "compound": "CCCCSc1cc(C)nc(N)n1",
    "discrete.label": -1
  },
  {
    "compound": "CC1=C(c2ccccc2)C=NNCC1=O",
    "discrete.label": -1
  },
  {
    "compound": "COc1ccc(CN2CCOC2=O)cc1OC",
    "discrete.label": 1
  },
  {
    "compound": "CCCSc1nc2c(c(=O)n(C)c(=O)n2C)n1C",
    "discrete.label": 1
  },
  {
    "compound": "CC(C)(C)C1=NN=C2c3ccccc3C(=O)C21 (stereo unspecified)",
    "discrete.label": 1
  },
  {
    "compound": "Cn1c(=O)c2c(nc(N3CCOCC3)n2C)n(C)c1=O",
    "discrete.label": 1
  }
]

* * *

Inhibition by entry:
Test system: Candida albicans
assay.setup: 20 µM
Description: Antifungal activity against Candida albicans ATCC 90028 (CO-ADD:FG_001); MIC in YNB media using NBS plates, by OD630
Measured potencies and affinities stand elsewhere.

[
  {
    "compound": "Nc1nc2cc([N+](=O)[O-])ccc2[nH]1",
    "study.target": "Candida albicans",
    "Inhibition, %": 0.21
  },
  {
    "compound": "COc1ccc(C2=NC(=O)NC2c2ccc(OC)cc2)cc1 (stereo not given)",
    "study.target": "Candida albicans",
    "Inhibition, %": 6.15
  },
  {
    "compound": "Clc1ccc(-c2c(C3=NCCCN3)nnn2-c2ccc(Cl)cc2)cc1",
    "study.target": "Candida albicans",
    "Inhibition, %": 1.4
  },
  {
    "compound": "O=C1OCC/C1=C\\NCCCCCCCCN/C=C1\\CCOC1=O",
    "study.target": "Candida albicans",
    "Inhibition, %": 0.08
  },
  {
    "compound": "COc1ccc(CC(=O)c2ccc(O)cc2O)cc1",
    "study.target": "Candida albicans",
    "Inhibition, %": 17.6
  },
  {
    "compound": "C1CCCC(NC2=NCCO2)CCC1",
    "study.target": "Candida albicans",
    "Inhibition, %": -2.21
  },
  {
    "compound": "N#CNC(=N)c1ccccc1",
    "study.target": "Candida albicans",
    "Inhibition, %": 1.62
  },
  {
    "compound": "COCCn1c2nc(=O)n(-c3ccccc3)c(=O)c-2nc2ccccc21",
    "study.target": "Candida albicans",
    "Inhibition, %": 1.39
  },
  {
    "compound": "C[C@@]1(c2ccccc2)O[C@@H]2C[C@H]3[C@@H]4CCC5=CC(=O)C=C[C@]5(C)[C@@]4(F)[C@@H](O)C[C@]3(C)[C@]2(C(=O)CO)O1 [AMCINAFIDE]",
    "study.target": "Candida albicans",
    "Inhibition, %": 4.92
  },
  {
    "compound": "O=C(O)c1ccccc1-c1ccccc1C(=O)Nc1ccc2oc(=O)c3ccccc3c2c1",
    "study.target": "Candida albicans",
    "Inhibition, %": 17.8
  }
]

* * *

Test system: Escherichia coli
protocol.description: Antibacterial activity against Escherichia coli ATCC 25922 (CO-ADD:GN_001); MIC in CAMBH media using NBS plates, by Resazurin F(560/590)
Assay type: functional
assay.setup: Concentration 20 uM, ASSAY_TEST Inhibition of Bacterial Growth, detection method Resazurin, Fluorescence (ex560/em590), MEDIA CAMHB, plate type 384well, CORNING #3640, time 18 hr
Reported Inhibition values for a set of compounds
reported.endpoint: Inhibition (%)

[
  {
    "compound": "N#CCCCCN1CCCC1",
    "measurement": 3.27
  },
  {
    "compound": "Nc1ccccc1Sc1cc(Cl)nnc1Cl",
    "measurement": 6.4
  },
  {
    "compound": "O=c1nc2onnc2c(/C=N\\O)[nH]1",
    "measurement": 10.25
  },
  {
    "compound": "COc1ccc2nc3cc(Cl)ccc3c(Nc3cc(C(C)C)c(O)cc3C)c2c1",
    "measurement": 18.01
  },
  {
    "compound": "CSC(=O)NC(=O)NC(=O)c1ccc([N+](=O)[O-])cc1",
    "measurement": 3.52
  },
  {
    "compound": "COc1cccc(OCC(O)CN2CCN(c3ccc(Cl)cc3)CC2)c1 (configuration not stated)",
    "measurement": 2.15
  },
  {
    "compound": "NC(=O)c1ccc(/N=N/c2c(O)c3ccccc3[nH]c2=O)cc1",
    "measurement": 1.38
  },
  {
    "compound": "Cn1cnc([N+](=O)[O-])c1Sc1nnc(-c2cccnc2)n1C",
    "measurement": -1.31
  },
  {
    "compound": "NC(=O)CCC(C(=O)O)N1C(=O)C2C3CCC(C3)C2C1=O (configuration not stated)",
    "measurement": -8.27
  },
  {
    "compound": "O=C1c2ccccc2C(O)(c2ccccc2)N1c1ccncc1 (configuration not stated)",
    "measurement": 4.92
  },
  {
    "compound": "COc1cccc(/C=C2\\CCc3ccccc3C2=O)c1",
    "measurement": 8.53
  },
  {
    "compound": "CC(=O)Nc1ccc(OCCOc2ccc([N+](=O)[O-])cc2)cc1",
    "measurement": 2.93
  }
]
